Origin of values: PubChem BioAssay AID1259407

Tested on: CCRIS mutagenicity, Ames/micronucleus/aberration tests
method_notes: CCRIS mutagenicity studies
experimental_conditions: Test System: E. COLI; Strain/Indicator: WP2 UVRA; Metabolic Activation: MOUSE, LIVER, S-9, AROCLOR 1254; Method: STANDARD PLATE
Active and inactive are the calls of the source. The rule behind the calls is not given here.
Outcome codes: active, inactive

| compound | tested_target | group |
| --- | --- | --- |
| O=P1(N(CCCl)CCCl)NCCCO1 (centres undefined) | CCRIS mutagenicity, Ames/micronucleus/aberration tests | inactive |
| Nc1ccccc1 | CCRIS mutagenicity, Ames/micronucleus/aberration tests | inactive |
| NC(N)=S | CCRIS mutagenicity, Ames/micronucleus/aberration tests | inactive |
| COS(C)(=O)=O | CCRIS mutagenicity, Ames/micronucleus/aberration tests | active |
| c1cc2ccc3cccc4ccc(c1)c2c34 | CCRIS mutagenicity, Ames/micronucleus/aberration tests | inactive |
| CNNCc1ccc(C(=O)NC(C)C)cc1 | CCRIS mutagenicity, Ames/micronucleus/aberration tests | inactive |
| O=[N+]([O-])c1cccc2ccccc12 | CCRIS mutagenicity, Ames/micronucleus/aberration tests | inactive |
| CCOc1ccc(NC(C)=O)cc1 | CCRIS mutagenicity, Ames/micronucleus/aberration tests | inactive |
| c1ccc2c(c1)ccc1ccccc12 | CCRIS mutagenicity, Ames/micronucleus/aberration tests | inactive |
